# Test system: SK-MEL-2 melanoma
# test-name: NCI tumour cell line growth inhibition, 48 h
quantity-kind: TGI

>>> result("Nc1cc(F)ccc1CC(=O)O")
"> 100 µM"
>>> result("Cc1cccc(-c2[nH]ncc2-c2ccc3ncccc3n2)n1")
"> 25 µM"
>>> result("O=C1c2cccnc2S(=O)(=O)N1c1ccc(Oc2ccccc2)cc1")
"> 100 µM"
>>> result("C[C@]12CCc3nc(Nc4cccc(O)c4)sc3C1=CC[C@@H]1[C@@H]2CC[C@]2(C)/C(=N\\NC(N)=S)CC[C@@H]12")
"7.36 µM"
>>> result("O=C(O)CSC(CC1(c2ccc(Cl)cc2)NC(=O)CS1)c1ccc(Cl)cc1 (configuration not stated)")
"> 100 µM"
>>> result("COC(=O)[C@@H](C)C[C@H](Cc1cn(C)c2ccccc12)NC(=O)c1csc([C@@H](C[C@H](C(C)C)N(C)C(=O)[C@@H](NC(=O)[C@H]2CCCCN2C)C(C)C)OC(C)=O)n1")
"> 16.7 µM"
>>> result("COc1cccc2ccc(C(=O)c3ccccc3)nc12")
"> 100 µM"
>>> result("COc1ccccc1C1C(Cl)C(=O)N1n1cnc2ccccc2c1=O (configuration not stated)")
"> 100 µM"
>>> result("CN(C)CCCC1c2ccccc2Oc2ccc(C(F)(F)F)cc21 (configuration not stated)")
"28.5 µM"
>>> result("CCOc1ccc2nc3nc(=O)[nH]c(C)c3c(NCCCN(CC)CC)c2c1")
"> 100 µM"
>>> result("CCC(CC)c1nc(Nc2ccc(C(=O)OC)cc2)c2ccccc2n1")
"20 µM"
>>> result("CC(=O)N1N=C(c2ccc3ccccc3c2O)CC1c1cccs1 (configuration not stated)")
"74.3 µM"
>>> result("CO/C=C/C(=O)c1cc2cnc3c(=N)cc(NC(=O)C(C)C)c([nH]1)c23")
"0.299 µM"
>>> result("Cc1c(O)c2ccccc2oc1=O")
"> 100 µM"
>>> result("S=C(NNC1=NCCCCN1)Nc1ccc(Cl)cc1")
"> 100 µM"
>>> result("C=C(C)C(=O)O[C@H]1CC2=C[C@@H](C[C@@]3(C)O[C@@H]3[C@H]3OC(=O)C(=C)[C@@H]31)OC2=O")
"8.81 µM"
>>> result("Nc1nc2c(ncn2C2CCC(CO)O2)c(=O)n1C(=O)c1ccccc1 (configuration not stated)")
"> 100 µM"
>>> result("Cc1c(C)c(C)c(CC2(C)CSC2)c(CC2(C)CSC2)c1C")
"> 100 µM"
>>> result("c1cnn(C23C4C5C6C4C2C6C53)c1 (configuration not stated)")
"> 100 µM"
>>> result("Cn1c(NNc2ccccc2)cc(=O)[nH]c1=O")
"> 100 µM"
>>> result("COc1cc2nccc(Oc3ccc(NC(=O)NC4CC4)c(Cl)c3)c2cc1C(N)=O")
"48.6 µM"
>>> result("O=c1[nH]nc(Cc2ccc(Cl)cc2)n1/N=C/c1ccco1")
"> 100 µM"

###

# Tested on: UACC-257 melanoma
# test-name: NCI tumour cell line growth inhibition, 48 h
quantity-kind: TGI

>>> result("COc1ccc(/C=C(/C(=O)N2CCN(c3ccccc3)CC2)c2cc(OC)c(OC)c(OC)c2)cc1N")
"> 100 µM"
>>> result("CC(=O)N(C)c1ccc(N=CN(C)C)cc1")
"> 100 µM"
>>> result("COc1cc(/C=C2/SC(c3ccccc3)N(Cc3ccccc3)C2=O)cc(OC)c1OC (centres undefined)")
"> 100 µM"
>>> result("COC(=O)/C(=N\\NC(N)=O)C(C(=O)C(=O)Nc1ccccc1OC)c1nc2ccc([N+](=O)[O-])cc2[nH]c1=O (centres undefined)")
"> 100 µM"
>>> result("Cc1[nH]c(=O)nc2c1C(NCCCN(C)C)c1cc(Cl)ccc1N2 (centres undefined)")
"26 µM"
>>> result("O=C1C(Cl)=C(Sc2nnc3c4ccccc4c4ccccc4c3n2)C(=O)c2ccccc21")
"30 µM"
>>> result("NC(=O)C(=O)c1ncn(Cc2ccccc2)c1N")
"> 100 µM"
>>> result("CC(=O)Nc1ccc(NS(=O)(=O)c2ccc3nc(C)n(NS(=O)(=O)c4ccc(NC(C)=O)cc4)c(=O)c3c2)cc1")
"> 100 µM"
>>> result("O=C(c1ccco1)c1nc2cc(C(F)(F)F)ccc2nc1C(F)(F)F")
"> 100 µM"
>>> result("O=C(O)/C=C/C(=O)N1Cc2cc3ccccc3nc2C1")
"> 100 µM"
>>> result("N#C[C@H](C(=O)c1ccccc1F)c1nc2ccccc2s1")
"> 100 µM"
>>> result("CCN1CCCC(C#N)(c2ccccc2)CC1 (centres undefined)")
"> 100 µM"
>>> result("CCN(CC)CCNc1ccc(C)c2sc3cc(Cl)ccc3c(=O)c12")
"3.42 µM"
>>> result("CCN(CC)C(=O)Cn1c(-c2ccccc2)cc2ccccc21")
"> 100 µM"
>>> result("CN1C(=O)CCC2[C@@H]3CC=C4C[C@@H](O)CC[C@]4(C)C3CC[C@@]21C (some centres undefined)")
"> 100 µM"
>>> result("C[C@]12CC[C@@H]3c4cc(OC(F)F)c(O)cc4CC[C@H]3[C@@H]1CC[C@@H]2OS(N)(=O)=O")
"79.6 µM"
>>> result("CC(C)(C)n1c(=O)n2n(c1=O)Cc1cccc3cccc(c13)C2")
"89.6 µM"
>>> result("COc1cc2nccc(Oc3ccc(NC(=O)NC4CC4)c(Cl)c3)c2cc1C(N)=O")
"> 93.7 µM"
>>> result("O=C1CC(c2c(-c3ccccc3)[nH]c3ccccc23)C(=O)N1 (centres undefined)")
"> 100 µM"

###

# Tested on: RPMI-8226 leukemia
# test-name: NCI tumour cell line growth inhibition, 48 h
log10 TGI overview
quantity-kind: log10 TGI (log10 of the value in µM)

>>> readout_number("CN1CCC(COc2cnc(-c3cccc(Cn4nc(-c5cccc(C#N)c5)ccc4=O)c3)nc2)CC1")
0.96
>>> readout_number("COc1ccc2sc3cccc(NCCN(C)C)c3c(=O)c2c1")
0.71
>>> readout_number("COc1ccccc1NC(=O)C1=C(C)NC(C)=C(C(=O)Nc2ccccc2OC)C1C1=CC=COC1")
1.70
>>> readout_number("CC(C)C1OC(N)=C(C#N)C1(C#N)C#N (stereo not given)")
1.90
>>> readout_number("COc1cc(/C=C2\\C[C@H]3[C@@H]4CC=C5C[C@@H](O)CC[C@]5(C)[C@H]4CC[C@]3(C)[C@H]2O)ccc1OCCN1CCCC1")
1.41

###

Recorded TGI by entry
# Tested on: M14 melanoma
# test-name: NCI tumour cell line growth inhibition, 48 h
quantity-kind: TGI

>>> result("CC1(C)CC(O)C2=C(O1)C(=O)c1ncccc1C2=O (stereo unspecified)")
"4.22 µM"
>>> result("O=C1CC(c2c(-c3ccccc3)[nH]c3ccccc23)C(=O)N1 (stereo unspecified)")
"> 100 µM"
>>> result("Cn1c2ccccc2n2c3ncccc3c(=NCCCC(=O)O)c(C#N)c12")
"> 100 µM"
>>> result("O=[N+]([O-])c1ccc(-c2cc(O)c3nc4ccccc4n3c2)cc1")
"> 100 µM"
>>> result("N#Cc1cnc(-n2[nH]c3c(c2=O)CCCC3)[nH]c1=O")
"> 100 µM"
>>> result("C=CC(=O)NCCSCCCOC1(C(=O)O)CC(O)C(NC(C)=O)C(C(O)C(O)CO)O1 (stereo unspecified)")
"> 100 µM"
>>> result("C[Si](C)(C)C#Cc1cc(-c2nc3ccccc3s2)ccc1N")
"31 µM"
>>> result("O=C(NC(=S)Nc1ccc2c(c1)Sc1ccccc1O2)c1ccc([N+](=O)[O-])cc1")
"> 100 µM"
>>> result("COc1ccc(N=C2S/C(=N\\C(=Nc3ccccc3)SCc3ccccc3)N(c3ccccc3)C2=Nc2ccc(OC)cc2)cc1")
"> 100 µM"
>>> result("COC1C(CO)OC(n2c3ccccc3c3c4c(c5c6ccccc6[nH]c5c32)C(=O)NC4=O)C(O)C1O (stereo unspecified)")
"0.347 µM"
>>> result("NCCCNc1nc2ccccc2c2c(=O)c3cc(F)cc(F)c3sc12")
"3.3 µM"
>>> result("Cc1ccc(S(=O)(=O)c2ccc(NC(=O)SCCC(=O)O)cc2)cc1")
"> 100 µM"
>>> result("COc1ccc2sc3cccc(NCCN(C)C)c3c(=O)c2c1")
"4.1 µM"
>>> result("CN1C(=O)CCC2[C@@H]3CC=C4C[C@@H](O)CC[C@]4(C)C3CC[C@@]21C (stereo partly specified)")
"> 100 µM"
>>> result("FC(F)(F)c1ccc(Cc2nc3cc4ccccc4cc3[nH]2)cc1")
"> 100 µM"
>>> result("Cc1ccc2c(=O)cc(Cc3cccs3)[nH]c2n1")
"> 100 µM"
>>> result("Cc1ccc(NC(=O)c2ccc(CN3CCN(C)CC3)cc2)cc1Nc1nccc(-c2cccnc2)n1")
"35.7 µM"
>>> result("CN1CCC(COc2cnc(-c3cccc(Cn4nc(-c5cccc(C#N)c5)ccc4=O)c3)nc2)CC1")
"3.64 µM"
>>> result("Cc1ccc(S(=O)(=O)CN2C(=O)C(c3ccccc3)(c3ccccc3)C23OC(c2ccc(Cl)cc2)=CC3=O)cc1 (stereo unspecified)")
"> 10 µM"
>>> result("CC1=NN(c2nc(N)nc(CBr)n2)C(C)(C)C1")
"21.2 µM"
>>> result("CN(C)c1ccc(/C=C/C(=O)[O-])cc1.CN(C)c1ccc(/C=C/C(=O)[O-])cc1.[Cu+2]")
"> 100 µM"
